target: Muscarinic acetylcholine receptor M3 (Rattus norvegicus, UniProt P08483)
Sequence (P08483 whole entry): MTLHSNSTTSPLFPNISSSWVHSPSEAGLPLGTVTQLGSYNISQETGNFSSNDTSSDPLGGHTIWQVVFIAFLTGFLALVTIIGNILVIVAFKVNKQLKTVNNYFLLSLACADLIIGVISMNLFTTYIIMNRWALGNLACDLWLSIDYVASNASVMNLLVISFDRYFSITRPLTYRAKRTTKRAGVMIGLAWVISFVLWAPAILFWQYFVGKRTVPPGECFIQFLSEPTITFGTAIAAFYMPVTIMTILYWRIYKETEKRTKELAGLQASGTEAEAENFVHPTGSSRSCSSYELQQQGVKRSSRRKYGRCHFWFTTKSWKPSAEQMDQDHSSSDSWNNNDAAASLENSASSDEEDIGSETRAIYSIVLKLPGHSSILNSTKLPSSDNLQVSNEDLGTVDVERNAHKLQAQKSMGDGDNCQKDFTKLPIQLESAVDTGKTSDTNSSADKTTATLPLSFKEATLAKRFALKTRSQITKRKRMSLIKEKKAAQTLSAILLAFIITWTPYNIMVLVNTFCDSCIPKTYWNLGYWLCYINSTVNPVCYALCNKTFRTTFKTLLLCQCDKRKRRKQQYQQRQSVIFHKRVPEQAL
Recorded Ki, one value per entry.

Observe how each entry below is paired with its result.
Compound | Assay value
O=S1(=O)c2ccccc2CCC12CCN(Cc1ccccc1)CC2 | > 10 µM
[O-][S+]1c2ccccc2CCC12CCN(Cc1ccccc1)CC2 (stereo not drawn) | > 10 µM

Shifting focus to the compound that follows.
For the record c1ccc(CN2CCC3(CCc4ccccc4O3)CC2)cc1 , what value of Ki is listed for Muscarinic acetylcholine receptor M3 (Rattus norvegicus, UniProt P08483)?
> 10 µM

---

Target: Muscarinic acetylcholine receptor M2 (Rattus norvegicus, UniProt P10980)
Sequence (P10980 whole entry): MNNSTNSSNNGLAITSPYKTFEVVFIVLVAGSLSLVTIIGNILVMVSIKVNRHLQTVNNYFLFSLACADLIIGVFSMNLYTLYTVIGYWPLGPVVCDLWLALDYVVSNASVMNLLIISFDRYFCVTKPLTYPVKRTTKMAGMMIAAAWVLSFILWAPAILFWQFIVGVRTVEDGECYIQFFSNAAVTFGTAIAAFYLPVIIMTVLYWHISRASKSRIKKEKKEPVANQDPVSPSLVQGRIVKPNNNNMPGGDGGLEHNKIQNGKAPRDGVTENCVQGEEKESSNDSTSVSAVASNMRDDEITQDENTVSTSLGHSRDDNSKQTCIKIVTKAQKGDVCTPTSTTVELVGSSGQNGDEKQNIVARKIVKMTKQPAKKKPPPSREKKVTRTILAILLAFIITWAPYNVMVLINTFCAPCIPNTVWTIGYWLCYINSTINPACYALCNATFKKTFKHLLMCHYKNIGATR
Parameter: Ki

Observe how each entry below is paired with its result.
Molecule | Parameter | Assay value
O=C1c2ccccc2CCC12CCN(Cc1ccccc1)CC2 | Ki | 2.7 µM
O=S1(=O)c2ccccc2CCC12CCN(Cc1ccccc1)CC2 | Ki | > 10 µM
c1ccc(CN2CCC3(CCc4ccccc4O3)CC2)cc1 | Ki | > 10 µM

Ki for [O-][S+]1c2ccccc2CCC12CCN(Cc1ccccc1)CC2 (centres undefined) ?
> 10 µM

---

target: Serotonin 2 (5-HT2) receptor; test: Compound was tested for its binding affinity towards 5-hydroxytryptamine 2 receptor using [3H]ketanserin from guinea pig frontal cortex; assay type: tissue-based, Cavia porcellus
Parameter: Ki (µM)
Provide only the numeric value, understood in µM.

Record smiles | Subject of test | Ki [µM]
c1ccc(CN2CCC3(CCc4ccccc4S3)CC2)cc1 | Serotonin 2 (5-HT2) receptor | 7.6

Shifting focus to the compound that follows.
Ki for O=C1c2ccccc2CCC12CCN(Cc1ccccc1)CC2 ?
0.218

---

molecular target: Sigma 2 receptor; assay: Binding affinity towards sigma 2 receptor using [3H]DTG in the presence of 200 nM (+)-NANM from guinea pig brain
Recorded Ki, one value per entry.
Provide only the numeric value, understood in nM.

Molecule | Subject of test | Unit symbol | Ki
c1ccc(CN2CCC3(CCc4ccccc4S3)CC2)cc1 | Sigma 2 receptor | nM | 416
O=C1c2ccccc2CCC12CCN(Cc1ccccc1)CC2 | Sigma 2 receptor | nM | 10
c1ccc(CN2CCC3(CCc4ccccc4O3)CC2)cc1 | Sigma 2 receptor | nM | 22

Ki for O=S1(=O)c2ccccc2CCC12CCN(Cc1ccccc1)CC2 ?
1800

Ki for [O-][S+]1c2ccccc2CCC12CCN(Cc1ccccc1)CC2 (stereo unspecified) ?
1700

---

target: D(2) dopamine receptor (Rattus norvegicus, UniProt P61169); assay: Compound was tested for its binding affinity towards Dopamine receptor D2 using [3H]spiperone from rat striatum
Sequence (P61169 whole entry): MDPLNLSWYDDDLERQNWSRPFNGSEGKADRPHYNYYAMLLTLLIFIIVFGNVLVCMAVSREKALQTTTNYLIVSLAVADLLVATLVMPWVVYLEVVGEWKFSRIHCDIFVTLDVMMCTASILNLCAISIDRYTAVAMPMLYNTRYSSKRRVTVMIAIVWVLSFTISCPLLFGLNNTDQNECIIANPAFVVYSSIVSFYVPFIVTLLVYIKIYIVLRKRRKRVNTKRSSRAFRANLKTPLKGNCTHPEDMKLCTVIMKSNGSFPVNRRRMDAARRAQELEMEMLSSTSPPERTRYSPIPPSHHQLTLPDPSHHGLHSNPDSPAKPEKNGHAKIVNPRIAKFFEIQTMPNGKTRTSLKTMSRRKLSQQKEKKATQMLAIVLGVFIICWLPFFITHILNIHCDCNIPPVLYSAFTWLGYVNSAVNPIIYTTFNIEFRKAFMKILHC
pKi: −log10 of the molar value.
Parameter: pKi

Molecule | pKi
c1ccc(CN2CCC3(CCc4ccccc4S3)CC2)cc1 | 4.98

For the record [O-][S+]1c2ccccc2CCC12CCN(Cc1ccccc1)CC2 (centres undefined) , what value of pKi is listed for D(2) dopamine receptor (Rattus norvegicus, UniProt P61169)?
< 5.00

For the record c1ccc(CN2CCC3(CCc4ccccc4O3)CC2)cc1 , what value of pKi is listed for D(2) dopamine receptor (Rattus norvegicus, UniProt P61169)?
< 5.00

For the record O=S1(=O)c2ccccc2CCC12CCN(Cc1ccccc1)CC2 , what value of pKi is listed for D(2) dopamine receptor (Rattus norvegicus, UniProt P61169)?
< 5.00

---

Recorded Ki, one value per entry.
target: Serotonin 2 (5-HT2) receptor; test: Compound was tested for its binding affinity towards 5-hydroxytryptamine 2 receptor using [3H]ketanserin from guinea pig frontal cortex; format: tissue-based, Cavia porcellus

Molecule | Subject of test | Assay value
[O-][S+]1c2ccccc2CCC12CCN(Cc1ccccc1)CC2 (stereo not drawn) | Serotonin 2 (5-HT2) receptor | > 10 µM

Ki for O=S1(=O)c2ccccc2CCC12CCN(Cc1ccccc1)CC2 ?
> 10 µM

Ki for c1ccc(CN2CCC3(CCc4ccccc4O3)CC2)cc1 ?
> 10 µM

This collection of values is drawn from ChEMBL document CHEMBL1131209.
